Experiment: blockers of RIG-like receptor reporter activation – cell-based, Sendai virus stimulus, luciferase, 10K MLSCN set, TLR/RLR signaling modifier project, primary screen (AID 602276);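 further: firefly luciferase from ISG56 promoter only with Renilla not read in this screen; 0% = Sendai virus plus DMSO and 100% = medium plus DMSO without virus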
Conditions: HEK293 RL24 IRF3 luciferase reporter, at 10 µM, active compounds read high
The source made the active and inactive calls.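 How the source made its calls: active means inhibition at or above 50% at 10 µM; inactive means inhibition below 50%.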
Recorded inhibition values for a group of compounds are listed next.

{"columns": ["compound", "inhibition"],
 "data": [
  ["CCC(C)NC(=O)c1ccccc1NC(=O)C(C)N(c1ccccc1)S(C)(=O)=O (stereo not drawn)", "5.01% (inactive)"],
  ["Cc1ccc(NC(=O)C2CC=CCC2C(=O)N2CCCCC2)cc1 (stereo not drawn)", "-0.377% (inactive)"],
  ["CCOC(=O)C(C(C)=O)c1nc(C)nc2c1nnn2Cc1ccccc1Cl (stereo not drawn)", "-11.2% (inactive)"],
  ["O=C(CN1C(=O)c2ccccc2C1=O)Nc1ccccc1C(=O)N1CCCC1", "4.76% (inactive)"],
  ["COc1cccc(N2CCN(C(=O)C3C4C=CC5(CN(Cc6ccccc6Cl)C(=O)C35)O4)CC2)c1 (stereo not drawn)", "-0.268% (inactive)"],
  ["Cc1ccnc(NC(=O)CCC(=O)N(CC(=O)NC(C)(C)C)C2CCCC2)c1", "9.05% (inactive)"],
  ["CC(C)c1cc(C(=O)NCc2ccco2)no1", "-22.8% (inactive)"],
  ["Cc1cccc(NC(=O)C2CCCN(C(=O)Nc3ccccc3)C2)c1C (stereo not drawn)", "4% (inactive)"],
  ["COc1ccccc1Cn1nnc2c(=O)[nH]c(C3CCN(C(=O)c4ccccc4Cl)CC3)nc21", "18.5% (inactive)"],
  ["CCOC(=O)N1CCN(C(=O)c2c(-c3ccccc3)noc2C)CC1", "14% (inactive)"],
  ["COc1cc2c(cc1NCc1ccccn1)oc1ccccc12", "-24.8% (inactive)"],
  ["Cc1cccc(-n2ncc3c(N4CCC5(CC4)OCCO5)ncnc32)c1", "-34.4% (inactive)"],
  ["O=C(O)c1cc2nc(-c3ccc(F)cc3)cc(C(F)(F)F)n2n1", "0.989% (inactive)"],
  ["Cc1ccc(N=C2NC(=O)CS2)c(C)c1", "2.6% (inactive)"],
  ["Cc1nc2cc(C(=O)O)ccc2n1-c1ccc(F)cc1F", "4.77% (inactive)"],
  ["Cn1c(=O)c(=O)n(C)c2cc(S(=O)(=O)CCC(=O)N3CCOCC3)ccc21", "8.53% (inactive)"],
  ["CCOCCCNC(=O)Cn1cc2c(n1)CCCCC2", "3.75% (inactive)"],
  ["Cc1cc(NCCN2CCCCC2)n2c(nc3ccccc32)c1C#N", "10.4% (inactive)"],
  ["COc1ccc(C(CNC(=O)c2cc(C)oc2C)N2CCOCC2)cc1 (stereo not drawn)", "11.1% (inactive)"],
  ["Cc1ccc(N=Cc2ccc[nH]2)c(O)c1", "-10% (inactive)"],
  ["Cc1cc(C)c2c(n1)nn1c(N3CCOCC3)cc(C)nc21", "2.18% (inactive)"],
  ["COc1ccc(C2(C(=O)N3CCCC3)CCOCC2)cc1OC", "2.28% (inactive)"],
  ["COc1cccc(CN2CCN(C(=O)CC(C)C)CC2)c1", "10.5% (inactive)"]
]}

====

Target: Alpha-2C adrenergic receptor (Homo sapiens) (UniProt P18825)
Sequence (P18825 whole entry, looked up): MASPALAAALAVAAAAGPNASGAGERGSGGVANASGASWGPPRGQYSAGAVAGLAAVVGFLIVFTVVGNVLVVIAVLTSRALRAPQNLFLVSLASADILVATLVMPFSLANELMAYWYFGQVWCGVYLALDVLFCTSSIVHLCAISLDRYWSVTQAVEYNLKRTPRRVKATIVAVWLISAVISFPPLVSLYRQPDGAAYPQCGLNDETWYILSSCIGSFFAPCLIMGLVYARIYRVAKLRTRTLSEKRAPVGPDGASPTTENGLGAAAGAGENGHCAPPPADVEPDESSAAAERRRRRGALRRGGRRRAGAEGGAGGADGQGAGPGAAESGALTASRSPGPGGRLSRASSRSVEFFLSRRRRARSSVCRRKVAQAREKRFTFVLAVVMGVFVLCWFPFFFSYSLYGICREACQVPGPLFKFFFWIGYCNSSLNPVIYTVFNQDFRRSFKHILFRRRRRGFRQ
Experiment: compounds altering alpha2C-coupled GIRK flux – cell-based, HEK293 alpha2C/GIRK1/2, thallium flux, primary screen (AID 624);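 further: slope of fluorescence ratio to pre-addition baseline per second over 15 to 24 s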
Conditions: thallium flux BTC fluorescence, at 10 µM, actives lie on both sides
Activity calls are given as the source filed them.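 Rule for the calls: active = fluorescence slope after compound addition differing from the mean of all screened samples at 99.7% confidence, in either direction; inactive = the rest.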
Recorded slope values for a group of compounds are listed next.
measuredQuantity: slope

{"columns": ["compound", "recordedResult"],
 "data": [
  ["CN(C)CCCN1C(=O)c2oc3ccccc3c(=O)c2C1c1cccs1 (stereo not drawn)", "0.00339 (inactive)"],
  ["COC(=O)CSC1=NS(=O)(=O)c2ccccc21", "0.00571 (inactive)"],
  ["COc1ccc(-n2ncc3c(NCCCN4CCOCC4)ncnc32)cc1", "0.00402 (inactive)"],
  ["CN(CC(=O)Nc1ccc2c(c1)OCCO2)S(=O)(=O)c1ccc(Br)s1", "0.00399 (inactive)"],
  ["COc1ccccc1-c1nnc(SCc2ccccn2)n1C", "0.0056 (inactive)"],
  ["CCOC(=O)Cn1nnc(-c2ccc(SC)cc2)n1", "0.00483 (inactive)"],
  ["Cn1c(=O)c(=O)n(C)c2cc(S(=O)(=O)N3CCCCC3)ccc21", "0.00642 (inactive)"],
  ["CC(=O)NC(Cc1ccc(C)cc1)C(=O)NC1CCN(C(=O)c2cnccn2)CC1 (stereo not drawn)", "0.00511 (inactive)"],
  ["CCOC(=O)CCCOC(=O)c1ccc(S(=O)(=O)N(C)C)cc1", "0.00644 (inactive)"],
  ["Cc1nnc(SCc2cn3ccsc3n2)n(N)c1=O", "0.00624 (inactive)"],
  ["Cc1c(C(=O)Nc2cnccn2)oc2ccccc12", "0.00977 (inactive)"],
  ["Cc1nc(N)[nH]c(=O)c1CCC(=O)OCC(C)C", "0.00627 (inactive)"],
  ["Cc1cc(N=Cc2cc(Br)ccc2O)no1", "0.00663 (inactive)"],
  ["CCOc1ccc(S(=O)(=O)NCC2CCCO2)c2cccnc12 (stereo not drawn)", "0.00707 (inactive)"],
  ["CCCS(=O)(=O)N1CCCC(C(=O)NC2CCCC(C)C2C)C1 (stereo not drawn)", "0.00599 (inactive)"],
  ["CCCCOc1ccc(N(CC(=O)NC2CCCC2)C(=O)CCC(=O)Nc2ccccn2)cc1", "0.00642 (inactive)"],
  ["COc1cc(Br)cc(/C=N/c2ncn[nH]2)c1O", "0.00616 (inactive)"],
  ["COc1cc2c(c(OC)c1)C(c1ccncc1)CC(=O)N2 (stereo not drawn)", "0.0063 (inactive)"],
  ["CCOC(=O)c1cnc(SC2CC(=O)N(c3ccc(OC)c(OC)c3)C2=O)nc1N (stereo not drawn)", "0.00718 (inactive)"],
  ["CCn1c(=N)n(CC(O)c2ccco2)c2ccccc21 (stereo not drawn)", "0.00623 (inactive)"],
  ["COc1ccc(Br)cc1CNC(=O)C1CCCN(S(C)(=O)=O)C1 (stereo not drawn)", "0.00566 (inactive)"],
  ["O=C(CCNC(=O)c1ccc(Br)o1)NC1CCCC1", "0.00549 (inactive)"],
  ["Cc1nc(NC2=NCN(CC3CCCO3)CN2)nc2ccccc12 (stereo not drawn)", "0.00499 (inactive)"],
  ["CCOC(=O)c1cccc(NC(=O)CSc2nnc(-c3cccnc3)n2CC)c1", "0.00514 (inactive)"],
  ["CC(=O)C(Sc1ncnc2c1nnn2-c1ccc(F)cc1)C(=O)N(C)C (stereo not drawn)", "0.00752 (inactive)"],
  ["CCC(C)(C(=O)NC1CCCC1)N(Cc1cccs1)C(C)=O (stereo not drawn)", "0.00646 (inactive)"],
  ["CCCC(=O)Nc1cc(C)c2c(=O)oc3ccccc3c2n1", "0.0057 (inactive)"],
  ["CCc1nc2scc(-c3ccccc3)c2c(=O)n1N", "0.00592 (inactive)"],
  ["COc1ccc(S(=O)(=O)N(C)C2CCN(C)CC2)cc1", "0.00699 (inactive)"],
  ["Oc1ccc2ccccc2c1CN1CCN(c2ccccc2F)CC1", "0.00592 (inactive)"],
  ["CC(=O)Nc1ccc(S(=O)(=O)N2CCC(c3nc4ccccc4[nH]3)CC2)cc1", "0.00595 (inactive)"],
  ["CCCCN(Cc1cc2cc(OC)ccc2[nH]c1=O)C(=O)c1ccccn1", "0.00511 (inactive)"],
  ["O=C(NCCN1C(=O)C2C3C=CC(C3)C2C1=O)N1CCOCC1 (stereo not drawn)", "0.00653 (inactive)"],
  ["CCN(CC)CCCn1c(=S)[nH]c2cc(Cl)ccc2c1=O", "0.00373 (inactive)"],
  ["COCCn1c(CN2CCN(c3cccc(Cl)c3)CC2)nc2c1c(=O)n(C)c(=O)n2C", "0.00601 (inactive)"],
  ["CCc1ccccc1OCCCCN1CCCC1", "0.00548 (inactive)"],
  ["CN(Cc1ccccc1)C(=O)c1ccccc1NC(=O)c1ccco1", "0.00495 (inactive)"],
  ["O=C1NC(=O)C(CC(=O)N(Cc2ccco2)C2(C(=O)NC3CCCC3)CCCCC2)N1 (stereo not drawn)", "0.00746 (inactive)"],
  ["COc1ccc2nc(NC(=O)c3ccoc3C)sc2c1", "0.00322 (inactive)"],
  ["CC(=O)Nc1ccc(OCC(O)Cn2nc(C)nc2C)cc1 (stereo not drawn)", "0.00761 (inactive)"],
  ["CC(=O)OC1c2ccccc2C(=O)N1Cc1ccccc1Cl (stereo not drawn)", "0.00651 (inactive)"],
  ["O=C(NCc1cccnc1)c1ccccn1", "0.00661 (inactive)"],
  ["COc1ccc(C2=NO[C@@H]3C(=O)N(c4ccc5c(c4)OCCO5)C(=O)[C@H]23)cc1OC", "0.0052 (inactive)"],
  ["O=C(O)C1CCCN1S(=O)(=O)c1ccc2ccccc2c1 (stereo not drawn)", "0.00297 (inactive)"],
  ["CCNc1nc(N2CCOCC2)nc(N(c2ccccc2)c2ccccc2)n1", "0.00355 (inactive)"],
  ["CCOc1ccccc1-c1nc(-c2ccc(C)nc2OC)no1", "0.00778 (inactive)"],
  ["CCOC(=O)c1ccccc1NC(=O)c1cccnc1", "0.00744 (inactive)"],
  ["CCOC(=O)CNC(=O)CSc1ncnc2c1cnn2Cc1ccccc1", "0.0067 (inactive)"]
]}
